Listing of entries alongside the reported pIC50.
- System tested: Dual specificity protein phosphatase 3 (Homo sapiens, UniProt P51452)
- Sequence (P51452 whole entry): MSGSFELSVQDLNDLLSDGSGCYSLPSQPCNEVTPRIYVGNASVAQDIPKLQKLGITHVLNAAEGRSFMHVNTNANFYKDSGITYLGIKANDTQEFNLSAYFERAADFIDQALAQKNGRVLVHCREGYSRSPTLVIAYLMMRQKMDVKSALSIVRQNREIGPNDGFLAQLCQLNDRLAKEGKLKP
- Procedure summary: Inhibition of human recombinant His-tagged VHR using 3-O-Methylfluorescein phosphate as substrate incubated for 10 mins prior to substrate addition by fluorometry
pIC50: −log10 of the molar value.
Assay readout: pIC50

Structure notation	System tested	Reported
O=C(O)CCc1ccc[c]([Sb](=[O])([OH])[OH])c1	Dual specificity protein phosphatase 3 (Homo sapiens, UniProt P51452)	< 4.00
O=C(O)/C=C/c1ccc[c]([Sb](=[O])([OH])[OH])c1	Dual specificity protein phosphatase 3 (Homo sapiens, UniProt P51452)	< 5.00
